The origin of these recorded values is paper PMC2682635.

- ASSAY METHOD TEXT: Pharmacokinetics: GHB in plasma after intragastric GHB, GBL or 1,4-BD
- EXPERIMENTAL CONDITIONS: monkey, plasma, po, 320 mg/kg

| MOLECULE | AUC [µM·h] |
| --- | --- |
| O=C(O)CCCO [GHB, Gamma-hydroxybutyrate] | 4580 |

* * *

- ASSAY METHOD TEXT: in vivo
- EXPERIMENTAL CONDITIONS: plasma, po

| ENTRY SMILES | Tmax / min |
| --- | --- |
| OCCCCO | 30 |

* * *

- ASSAY METHOD TEXT: in vivo
- EXPERIMENTAL CONDITIONS: monkey, plasma, po, 180 mg/kg

| COMPOUND | Cmax |
| --- | --- |
| OCCCCO [1,4-BD, 1,4-butanediol] | 289 to 1100 µM |
